meta.source: patent US5401760A

# assay_target: prolyl endopeptidase (Bos taurus, UniProt Q9XTA2)
# Sequence (Q9XTA2 whole entry): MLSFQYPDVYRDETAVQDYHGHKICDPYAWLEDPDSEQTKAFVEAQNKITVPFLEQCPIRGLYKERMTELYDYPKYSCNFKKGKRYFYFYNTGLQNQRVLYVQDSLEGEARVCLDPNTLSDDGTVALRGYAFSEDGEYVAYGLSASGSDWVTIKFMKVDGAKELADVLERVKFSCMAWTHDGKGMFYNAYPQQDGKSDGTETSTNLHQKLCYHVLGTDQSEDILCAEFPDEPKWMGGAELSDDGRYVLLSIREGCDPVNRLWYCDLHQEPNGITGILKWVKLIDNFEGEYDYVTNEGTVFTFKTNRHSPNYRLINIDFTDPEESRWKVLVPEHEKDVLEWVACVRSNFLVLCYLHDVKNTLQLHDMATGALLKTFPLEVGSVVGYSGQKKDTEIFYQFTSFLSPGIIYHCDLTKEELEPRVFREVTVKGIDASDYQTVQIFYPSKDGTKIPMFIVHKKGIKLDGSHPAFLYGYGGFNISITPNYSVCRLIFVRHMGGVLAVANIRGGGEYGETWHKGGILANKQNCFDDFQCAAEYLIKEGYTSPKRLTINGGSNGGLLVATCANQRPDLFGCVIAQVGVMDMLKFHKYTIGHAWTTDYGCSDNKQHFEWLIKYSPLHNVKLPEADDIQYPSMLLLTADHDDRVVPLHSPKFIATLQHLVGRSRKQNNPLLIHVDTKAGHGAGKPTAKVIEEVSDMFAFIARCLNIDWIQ
# label = criterion met if IC50 < 0.2 µM else criterion not met

Solved cases below.
>>> group("CCC(O)[C@@H]1CSCN1C(=O)C1CCCCN1C(=O)CCc1ccccc1 (mixture of isomers)")
"criterion met"
>>> group("CCC(O)[C@@H]1CCCN1C(=O)CCC(=O)N(C)Cc1ccccc1 (mixture of isomers)")
"criterion not met"

Below 0.2 µM on IC50? Entry CN(Cc1ccccc1)C(=O)CCC(=O)N1CCC[C@H]1C(=O)C(=O)OCc1ccccc1
criterion met

Below 0.2 µM on IC50? Entry CCOC(=O)C(F)(F)C(O)[C@@H]1CCCN1C(=O)CCC(=O)N(C)Cc1ccccc1 (mixture of isomers)
criterion not met

Below 0.2 µM on IC50? Entry CN(Cc1ccccc1)C(=O)CCC(=O)N1CCC[C@H]1C(O)C(=O)OCc1ccccc1 (mixture of isomers)
criterion not met

Below 0.2 µM on IC50? Entry CCOC(=O)C(=O)[C@@H]1CCCN1C(=O)CCC(=O)N(C)Cc1ccccc1
criterion met

Below 0.2 µM on IC50? Entry O=C(CCCc1ccccc1)N1CSC[C@H]1C(=O)N1CSC[C@H]1C(O)c1ccccc1 (stereo partly shown)
criterion met
